Test system: OVCAR-5 ovarian
Test: NCI tumour cell line growth inhibition, 48 h; in the data active means GI50 below about 0.43 µM; inactive means the rest
Select the correct class. Options are True (active), False (inactive) and nothing else.

Challenge: Called result for `COc1cc2c(c(OC)c1OC)-c1ccc(O)c(=O)cc1[C@@H](NC(C)=O)CC2`
Response given: False

====

System: UACC-257 melanoma
Experiment: NCI tumour cell line growth inhibition, 48 h
measured_metric: TGI

Sample records with TGI:
Challenge: Observed TGI on UACC-257 melanoma for `COc1cc2c(cc1OC)C(=O)/C(=C/c1ccc(O)cc1)CC2` , please.
Response given: > 10 µM

Challenge: Observed TGI on UACC-257 melanoma for `O=C1C(Cl)=C(c2ccc([N+](=O)[O-])cc2)C(=O)c2c(O)cccc21` , please.
Response given: 4.84 µM

Challenge: Observed TGI on UACC-257 melanoma for `CC(C)(Cc1ccccc1)N1C(=O)N1C(C)(C)Cc1ccccc1` , please.
Response given: > 100 µM

Challenge: Observed TGI on UACC-257 melanoma for `COC(=O)c1ccc(C(=O)OC)c2nc3cc(C)ccc3nc12` , please.
Response given: > 100 µM

Challenge: Observed TGI on UACC-257 melanoma for `NNC(=O)Cn1ccnn1` , please.
Response given: > 100 µM

Continuing:
Challenge: Observed TGI on UACC-257 melanoma for `COC(=O)/C=c1/c2ccccc2n2c1c1ccccc1[n+]2C` , please.
Response given: 8.08 µM

Challenge: Observed TGI on UACC-257 melanoma for `Nc1nc(N)nc(CC(=O)O)n1` , please.
Response given: > 100 µM
